{"columns": ["Compound", "melting point"],
 "data": [
  ["Cc1ccc(S(=O)(=O)OCC2Cc3cccc(OS(=O)(=O)C(F)(F)F)c3O2)cc1 (centres undefined)", "60 to 63 °C"],
  ["Oc1ccc(CCn2ccn(C3CCc4ccccc4C3)c2=S)cc1O (centres undefined)", "165 to 167 °C"],
  ["CN1CCN(Cc2cc(-c3ccc4c(c3)CCO4)nn(Cc3ccc(F)cc3)c2=O)CC1", "179 to 180 °C"],
  ["Cc1nc(C(=O)NCCN(C)C)c2n1-c1ccc(Cl)cc1C(c1ccccc1F)=NC2", "209 to 211 °C"],
  ["CCOC(=O)c1cccc2c1Cc1c-2[nH]c2ccc(Cl)cc12", "202 to 204 °C"],
  ["COCC(=O)N[C@H]1CC[C@H](CCN2CCN(c3nccc4ccoc34)CC2)CC1", "132 °C"],
  ["COc1ccc2c(Nc3ccc(C)c(O)c3)c(C#N)cnc2c1", "> 250 °C"],
  ["O=C(O)CC(CNC(=O)C1Cc2ccccc2N1S(=O)(=O)c1ccc(-c2cccc(C(F)(F)F)c2)cc1)c1ccccc1 (centres undefined)", "90 °C"],
  ["O=C(O)c1ccc2c(c1)C(=O)c1cc(C(=O)O)ccc1S2(=O)=O", "372 to 375 °C"]
]}

Data credit: a melting point compilation (Tetko et al.; mined from patent text by program, amines drawn as free bases though some values may be those of a salt)
